# Tgt: T1, CAPRIN-1 protein expressed on the membrane surface of human cancer cells (human, UniProt Q14444 2-709)
# T1 sequence (looked up): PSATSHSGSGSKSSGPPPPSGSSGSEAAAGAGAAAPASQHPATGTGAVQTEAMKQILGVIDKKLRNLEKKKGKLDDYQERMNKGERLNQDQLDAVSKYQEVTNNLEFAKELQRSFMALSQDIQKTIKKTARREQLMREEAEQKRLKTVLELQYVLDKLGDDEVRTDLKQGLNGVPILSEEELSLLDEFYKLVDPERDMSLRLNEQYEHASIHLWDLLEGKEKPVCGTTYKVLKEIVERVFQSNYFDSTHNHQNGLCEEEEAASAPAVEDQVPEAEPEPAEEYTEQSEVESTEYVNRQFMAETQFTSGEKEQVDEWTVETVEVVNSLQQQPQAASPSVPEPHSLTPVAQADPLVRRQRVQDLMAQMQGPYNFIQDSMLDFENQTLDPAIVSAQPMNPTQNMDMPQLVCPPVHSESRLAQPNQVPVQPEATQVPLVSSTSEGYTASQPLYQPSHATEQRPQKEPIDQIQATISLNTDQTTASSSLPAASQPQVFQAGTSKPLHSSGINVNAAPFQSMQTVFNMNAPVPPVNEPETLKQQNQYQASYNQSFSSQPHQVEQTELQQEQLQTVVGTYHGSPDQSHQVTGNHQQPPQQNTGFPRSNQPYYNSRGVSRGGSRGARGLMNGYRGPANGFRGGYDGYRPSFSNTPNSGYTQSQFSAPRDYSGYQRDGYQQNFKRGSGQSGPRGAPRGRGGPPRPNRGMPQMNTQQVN
# Method Notes: cell-based or functional assay
Readout Type: ADCC cytotoxic activity (51Cr release) on NCI-N87

Illustrative cases are given below, each with its answer.
>  <Binder>
humanized antibody #10 (antibody, V domains shown) VH: EQSLVESGGGLVQPGGSLRLSCAASGFSLSSHSLGWVRQAPGKGLEWIGDIRSGGSAYYANWAKGRFTISRDNSKNTLYLQMNSLRAEDTAVYYCTRTNGPSDLTNRLDLWGQGTLVTVSS VL: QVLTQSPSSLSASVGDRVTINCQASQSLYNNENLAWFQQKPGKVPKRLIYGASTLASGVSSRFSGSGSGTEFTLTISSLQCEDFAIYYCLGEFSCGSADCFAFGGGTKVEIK

>  <Value Measured>
≥ 45%

$$$$
>  <Binder>
humanized antibody #2 (antibody, V domains shown) VH: EVQLVESGGGLVQPGGSLRLSCAASGFSLSSHSLGWVRQAPGKGLEWIGDIRSGGSAYYANWAKGRFTISRDNSKNTLYLQMNSLRAEDTAVYYCTRTNGPSDLTNRLDLWGQGTLVTVSS VL: EIVLTQSPSSLSASVGDRVTINCQASQSLYNNENLAWFQQKPGKVPKRLIYGASTLASGVSSRFSGSGSGTEFTLTISNLQPEDFATYYCLGEFSCGSADCFAFGGGTKVEIK

>  <Value Measured>
≥ 38%

$$$$
>  <Binder>
human-rabbit chimeric anti-CAPRIN-1 antibody (antibody, V domains shown) VH: QSLEESGGRLVTPGTPLTLTCTASGFSLSSHSLGWVRQAPGKGLEWIGDIRSGGSAYYANWAKGRFTISRTSTTVALKMTSLTTEDTATYFCTRTNGPSDLTNRLDLWGQGTLVTVSS VL: QVLTQTPSSVSAAVGGTVTINCQASQSLYNNENLAWFQQKPGQPPKRLIYGASTLASGVSSRFKGSGSGTQFTLTIGDVQCDDAAIYYCLGEFSCGSADCFAFGGGTEVVVK

>  <Value Measured>
≥ 34%

$$$$

Read the next record carefully.
Ask: Item under review: humanized antibody #0 (antibody, V domains shown) VH: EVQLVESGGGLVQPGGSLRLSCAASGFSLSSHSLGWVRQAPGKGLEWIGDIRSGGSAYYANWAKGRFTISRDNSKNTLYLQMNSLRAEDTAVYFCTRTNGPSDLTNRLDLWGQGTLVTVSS VL: AIQMTQSPSSLSASVGDRVTINCQASQSLYNNENLAWFQQKPGKAPKRLIYGASTLASGVSSRFSGSGSGTDFTLTISSLQPEDFAIYYCLGEFSCGSADCFAFGGGTKVEIK . Reported ADCC cytotoxic activity (51Cr release) on NCI-N87?
Result: ≥ 34%
